Test system: PKB Ser473 phosphorylation in Rat1-myr-HA-p110 beta cells
Assay: Reverse protein array, PKB Ser473 phosphorylation in Rat1-myr-HA-p110 beta cells
Format: cell-based
Details: Rattus norvegicus, 0.5 h, 30 minutes compound incubation, read-out: p-PKB/IC50_beta
Assay Readout: IC50 (nM)

1. CNc1ccc(-c2ccc3ncc4c(c3c2)n(-c2ccc(NC(=O)COC)nc2C)c(=O)n4C)cn1 : 9.5
2. CCNc1cc(-c2ccc3ncc4c(c3c2)n(-c2cnc(F)cc2C)c(=O)n4C)cnc1C : 78.3
3. Cc1ncccc1-n1c(=O)n(C)c2cnc3ccc(-c4ccc(CO)nc4)cc3c21 : 72.9
4. Cc1ncccc1-n1c(=O)n(C)c2cnc3ccc(-c4cncc(N)c4)cc3c21 : 58.7
